assay: clinical; conditions: human, plasma, po, 0.25 mg
property_name: Cmax

Form field: reported Cmax of `C[C@H]1O[C@@H](O[C@H]2[C@@H](O)C[C@H](O[C@H]3[C@@H](O)C[C@H](O[C@H]4CC[C@@]5(C)[C@H](CC[C@@H]6[C@@H]5C[C@@H](O)[C@]5(C)[C@@H](C7=CC(=O)OC7)CC[C@]65O)C4)O[C@@H]3C)O[C@@H]2C)C[C@H](O)[C@@H]1O`
1.24 ng/mL
